Values compiled from the NIST ThermoML archive (doi:10.1016/j.fluid.2018.09.024).

Each entry below lists one item and its recorded activity coefficient value.
assay: activity coefficient (dimensionless); of the first substance listed, at infinite dilution; xn = mol fraction of the nth substance listed; conditions: 368.15 K; 101.33 kPa; Liquid; Chromatography; x1 = 0

# Compound, activity coefficient
measured = [
    ("O [water] + CCCCCCCCCCCC[N+](C)(C)CCOc1ccccc1.O=S(=O)([N-]S(=O)(=O)C(F)(F)F)C(F)(F)F", 2.4),
    ("CCCCCCC [heptane] + CCCCCCCCCCCC[N+](C)(C)CCOc1ccccc1.N#C[N-]C#N", 6.33),
    ("CCCO [propan-1-ol] + CCCCCCCCCCCC[N+](C)(C)CCOc1ccccc1.N#C[N-]C#N", 0.463),
    ("CCC(C)(C)C [2,2-dimethylbutane] + CCCCCCCCCCCC[N+](C)(C)CCOc1ccccc1.N#C[N-]C#N", 6.25),
    ("CCCCCCCCCC [decane] + CCCCCCCCCCCC[N+](C)(C)CCOc1ccccc1.O=S(=O)([N-]S(=O)(=O)C(F)(F)F)C(F)(F)F", 6.03),
    ("CCCCCCCC [octane] + CCCCCCCCCCCC[N+](C)(C)CCOc1ccccc1.N#C[N-]C#N", 7.07),
    ("CCC(C)CC [3-methylpentane] + CCCCCCCCCCCC[N+](C)(C)CCOc1ccccc1.O=S(=O)([N-]S(=O)(=O)C(F)(F)F)C(F)(F)F", 3.07),
    ("CCc1ccccc1 [ethylbenzene] + CCCCCCCCCCCC[N+](C)(C)CCOc1ccccc1.N#C[N-]C#N", 1.6),
    ("C#CCCCC [1-hexyne] + CCCCCCCCCCCC[N+](C)(C)CCOc1ccccc1.O=S(=O)([N-]S(=O)(=O)C(F)(F)F)C(F)(F)F", 1.57),
    ("C=C(C)c1ccccc1 [(1-methylethenyl)benzene] + CCCCCCCCCCCC[N+](C)(C)CCOc1ccccc1.N#C[N-]C#N", 1.39),
    ("C=COC(C)=O [vinyl acetate] + CCCCCCCCCCCC[N+](C)(C)CCOc1ccccc1.O=S(=O)([N-]S(=O)(=O)C(F)(F)F)C(F)(F)F", 0.493),
    ("CCOC(C)=O [ethyl acetate] + CCCCCCCCCCCC[N+](C)(C)CCOc1ccccc1.O=S(=O)([N-]S(=O)(=O)C(F)(F)F)C(F)(F)F", 0.648),
    ("CC#N [acetonitrile] + CCCCCCCCCCCC[N+](C)(C)CCOc1ccccc1.O=S(=O)([N-]S(=O)(=O)C(F)(F)F)C(F)(F)F", 0.555),
    ("C=CCCCCCC [oct-1-ene] + CCCCCCCCCCCC[N+](C)(C)CCOc1ccccc1.N#C[N-]C#N", 5.29),
]
